biological target: T1, human vascular endothelial growth factor receptor-2 Fc chimera (KDR-Fc) (human, UniProt P35968 20-764); assay: radioactive equilibrium binding, 1 nM KDR-Fc, % of input
T1 construct: range 1-764; also called human VEGFR-2; not shown: human IgG1 Fc
T1 sequence (P35968 20-764 limits assumed, change not shown, form in doubt): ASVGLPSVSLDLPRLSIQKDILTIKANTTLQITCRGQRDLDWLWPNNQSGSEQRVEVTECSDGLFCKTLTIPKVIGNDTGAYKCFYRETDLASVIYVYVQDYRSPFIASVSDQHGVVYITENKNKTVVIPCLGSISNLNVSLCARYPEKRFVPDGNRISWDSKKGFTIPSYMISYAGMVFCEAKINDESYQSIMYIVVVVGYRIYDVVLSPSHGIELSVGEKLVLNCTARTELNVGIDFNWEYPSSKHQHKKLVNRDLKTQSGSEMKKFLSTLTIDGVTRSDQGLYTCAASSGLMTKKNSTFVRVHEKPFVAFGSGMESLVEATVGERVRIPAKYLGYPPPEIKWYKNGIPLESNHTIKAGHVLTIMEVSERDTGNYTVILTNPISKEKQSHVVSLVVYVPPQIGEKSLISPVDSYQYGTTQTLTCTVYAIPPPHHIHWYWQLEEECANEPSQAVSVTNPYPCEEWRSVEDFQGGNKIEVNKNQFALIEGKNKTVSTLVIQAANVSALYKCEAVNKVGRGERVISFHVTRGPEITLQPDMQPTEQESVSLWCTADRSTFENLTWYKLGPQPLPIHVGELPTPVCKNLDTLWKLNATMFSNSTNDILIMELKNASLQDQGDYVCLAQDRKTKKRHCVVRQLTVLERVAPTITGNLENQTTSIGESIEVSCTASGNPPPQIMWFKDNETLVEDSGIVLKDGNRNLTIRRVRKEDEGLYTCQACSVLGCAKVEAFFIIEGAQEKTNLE
test.readout: Binding to 1 nM KDR, % (%)

Query block: Name the recorded Binding to 1 nM KDR, % for 3′A6 PR4 (designed binder) EVVAATPTSLLISWRHPHFPTRYYRITYGETGGNSPVQEFTVPLQPPTATISGLKPGVDYTITVYAVTLAQNGHELLTPISINYRT .
Result block: 19

(a) 3′F6 PR4 (designed binder) EVVAATPTSLLISWRHPHFPTRYYRITYGETGGNSPVQEFTVPLQPPTATISGLKPGVDYTITVYAVTIEQSGLQLMTPISINYRT
(b) 3′D3 PR4 (designed binder) EVVAATPTSLLISWRHPHFPTRYYRITYGETGGNSPVQEFTVPLQPPTATISGLKPGVDYTITVYAVTPGPGDRELITPISINYRT
(c) 1′DelF3 PR4 (designed binder) EVVAATPTSLLISWRHPHFPTRYYRITYGETGGNSPVQEFTVPLQPPTATISGLKPGVDYTITVYAVTMAQNDHKLFTPISINYRT
Query block: Rank by Binding to 1 nM KDR, % (largest to smallest). # respond with the labels, arranged in the requested order
Result block: b, a, c
